Origin of the recorded values: PubChem BioAssay (Tox21)

- assayed-system: Nuclear receptor ROR-gamma (Homo sapiens)
- test-details: qHTS assay to identify small molecule antagonists of the retinoid-related orphan receptor gamma (ROR-gamma) signaling pathway (AID 1159521; further: nearly all actives have a fitted effect of over 50% in size)
- assay-setup: Tet-on RORgamma CHO cells, RORE-luciferase, 16 h; series mostly up to 92.4 µM
Inconclusive results are not listed. The source made the active and inactive calls. The call rests on the fitted dose curve; in most records, active means well fitted inhibition curve with a large enough effect in the repeat runs; inconclusive means weak or mixed curves, or effect the other way; inactive means no such curve, though single readings can be large or run the other way.
Outcome codes: active, inactive

| compound | cat |
| --- | --- |
| CC(=O)O[C@H]1C[C@@H]2CC[C@@H]3[C@H](CC[C@@]4(C)[C@H]3C[C@H]([N+]3(C)CCCCC3)[C@@H]4OC(C)=O)[C@@]2(C)C[C@@H]1N1CCCCC1 | inactive |
| Cc1ncsc1CCO | inactive |
| CC(C)c1ccc2c(C(C)C)cc(C(C)C)c(S(=O)(=O)O)c2c1 | inactive |
| Oc1ccc(Sc2ccc(O)cc2)cc1 | inactive |
| Cc1cc(O)ccc1N | active |
| CCCCCCCCC(CO)CCCCCC (stereo not drawn) | inactive |
| CCCCCCCCCCCCCCC1CO1 (stereo not drawn) | inactive |
| CCc1nn(C2CCCCC2)c2cc(C3(C#N)CCC(C(=O)O)CC3)ccc12 (stereo not drawn) | active |
| COCCCCCCCCOCCC[Si](C)(O[Si](C)(C)C)O[Si](C)(C)C | active |
| OCC1CC2CC1C1CCC(CO)C21 (stereo not drawn) | inactive |
| CC/C(=C\C(=N/O)C(N)=O)C(C)[N+](=O)[O-] (stereo not drawn) | inactive |
| CC1=CC(=O)/C(=C(/C)O)C(=O)O1 | inactive |
| Cc1cccc(OCCOc2cccc(C)c2)c1 | inactive |
| Nc1cnn([C@@H]2O[C@H](CO)[C@@H](O)[C@H]2O)c(=O)n1 | active |
| CN1CCN(C2=Nc3ccccc3Sc3ccc(Cl)cc32)CC1 | inactive |
| CCCCCc1ccc(N)cc1 | inactive |
| CC(C)=CCCC(C)CC=O (stereo not drawn) | inactive |
| CC[C@H](C)[C@H](N)C(=O)O | inactive |
| Cc1cc(CC(=O)O)c(C)n1-c1ccc(Cl)cc1 | inactive |
| Oc1ccc2c(c1)OCO2 | inactive |
| CC(C)(C)c1ccc(OCC2CO2)cc1 (stereo not drawn) | inactive |
| O=C(O)/C=C/c1cnc[nH]1 | inactive |
| NCCCOCCOCCOCCCN | active |

====

- assayed-system: Nuclear receptor subfamily 1 group I member 2 (Homo sapiens) (UniProt O75469)
- test-details: CYP3A4 induction through human pregnane X receptor (PXR) by small molecules, qHTS assay (AID 1346984); further: nearly all actives have a fitted effect of over 40% in size; on activation: on the % scale 0 is the no-effect control and ±100 the full control effect
- assay-setup: DPX-2 HepG2 PXR, CYP3A4-luciferin luminescence, 24 h; series mostly up to 46.1 µM
- Source text: National Center for Advancing Translational Sciences [NCATS] NIH Chemical Genomics Center [NCGC] U.S. Environmental Protection Agency [EPA] National Institutes of Environmental Health Sciences [NIEHS] National Toxicology Program [NTP] The Pregnane X receptor (PXR), a ligand activated nuclear receptor plays a critical role in the regulation of genes involved in drug metabolism and transporters. Activation of PXR is responsible for unwanted adverse drug reactions. […]
Records with an inconclusive call do not appear. Activity calls are given as the source filed them. Calls come from the whole dose curve; as a rule, active = well fitted activation curve with a large enough effect in the repeat runs; inconclusive = weak or mixed curves; inactive = no such curve, though single readings can be large or run the other way.
Labels: 1.0 for active, 0.0 for inactive

| molecule | cat |
| --- | --- |
| CCOc1cc(OCC)c(C(=O)CCC(=O)O)cc1OCC | 0.0 |
| NC(N)=N/N=C/c1c(Cl)cccc1Cl | 0.0 |
| CCN(CC)CCOc1ccc2c(c1)C(=O)c1cc(OCCN(CC)CC)ccc1-2 | 0.0 |
| Cl/C(=C\n1cncn1)c1ccc(Cl)cc1Cl | 1.0 |
| CC(Cc1cccc(C(F)(F)F)c1)NCCOC(=O)c1ccccc1 (stereo not given) | 0.0 |
| NC(N)=NN=C(/C=C/c1ccc([N+](=O)[O-])o1)/C=C/c1ccc([N+](=O)[O-])o1 | 0.0 |
| CCN(CC)C(C)CN1c2ccccc2Sc2ccccc21 (stereo not given) | 1.0 |
| C[C@H](CCC(=O)O)[C@H]1CC[C@H]2[C@@H]3[C@H](O)C[C@@H]4C[C@H](O)CC[C@]4(C)[C@H]3CC[C@]12C | 0.0 |
| Cn1c(NCCN(CCO)CCCc2ccc([N+](=O)[O-])cc2)cc(=O)n(C)c1=O | 0.0 |
| CC1(C)CCC(C)(C)c2cc(NC(=O)c3ccc(C(=O)O)cc3)ccc21 | 0.0 |
| N=C(N=C(N)N)N1CCOCC1 | 0.0 |
| CCN(CC)CCc1nc(-c2ccccc2)no1 | 0.0 |
| CCN1CCC[C@H]1CNC(=O)c1c(OC)ccc(Br)c1OC | 0.0 |
| O=C(CCN1CCN2CCCC2C1)N1c2ccccc2Sc2ccc(Cl)cc21 (stereo not given) | 1.0 |
| Nc1nc(N)c(-c2ccccc2)s1 | 0.0 |

====

- test-details: qHTS assay to identify small molecule antagonists of the estrogen receptor alpha (ER-alpha) signaling pathway using the BG1 cell line - cell viability counter screen (AID 743081);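 further: compound given together with 17beta-estradiol as the ER stimulus; nearly all actives have a fitted effect of over 45% in size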
- assay-setup: BG1Luc4E2 viability, CellTiter-Fluor, 22 h; series mostly up to 70.3 µM
Records with an inconclusive call do not appear. Active and inactive are the calls of the source. Calls come from the whole dose curve; as a rule, active = well fitted cell-killing curve with a large enough effect in the repeat runs; inconclusive = weak or mixed curves, or effect the other way; inactive = flat fitted curve, though single readings scatter.
Labels: 1 (yes) for active, 0 (no) for inactive

| chem-smiles | cat |
| --- | --- |
| NC(N)=NN=C(/C=C/c1ccc([N+](=O)[O-])o1)/C=C/c1ccc([N+](=O)[O-])o1 | 1 (yes) |
| COC(=O)C(C)=O | 0 (no) |
| COc1ccc(OC)c(OC)c1 | 0 (no) |
| Nc1nc(N)c2nc(CNc3ccc(C(=O)N[C@@H](CCC(=O)O)C(=O)O)cc3)cnc2n1 | 0 (no) |

====

- test-details: A CellTox Green Cytotoxicity Assay to monitor cytotoxicity in HEK293 cells - 40 hour (AID 1224871); further: nearly all actives have a fitted effect of over 45% in size
- assay-setup: CellTox Green fluorescence; series mostly up to 76.8 µM
- Text: National Center for Advancing Translational Sciences [NCATS] NIH Chemical Genomics Center [NCGC] U.S. Environmental Protection Agency [EPA] National Institutes of Environmental Health Sciences [NIEHS] National Toxicology Program [NTP] Cell-based models are critical for drug discovery. […] Viable cells produce no appreciable increases in fluorescence. Therefore, the fluorescence signal produced by the binding interaction with dead cell DNA is proportional to cytotoxicity. […]
Results filed as inconclusive are left out. Activity calls are given as the source filed them. The call rests on the fitted dose curve; in most records, active means well fitted activation curve with a large enough effect in the repeat runs; inconclusive means weak or mixed curves; inactive means flat fitted curve, though single readings scatter.
Classes used: active, inactive

| molecule | cat |
| --- | --- |
| CN(C)CC[C@@H](c1ccc(Br)cc1)c1ccccn1 | inactive |
| CC(C)NCC(O)COc1ccc(CC(N)=O)cc1 (stereo not given) | inactive |
| S=C(S)NCCNC(=S)S | inactive |
| Cc1occc1S | inactive |
| CCCC[C@H]1CN(CC2CCOCC2)C(=O)OC12CCN(C1(C)CCN(C(=O)c3c(C)ncnc3C)CC1)CC2 | inactive |
| Cc1c(Cn2ccnc2)c2ccccc2n1CCC(=O)O | inactive |
| CC1CCc2cc(F)cc3c(=O)c(C(=O)O)cn1c23 (stereo not given) | inactive |
| Oc1ccc(C(O)CNCCCCCCNCC(O)c2ccc(O)c(O)c2)cc1O (stereo not given) | inactive |
| CCCCCCCCCC=O | inactive |
| CCCCCCCCCCCCCCC1CO1 (stereo not given) | inactive |
| CCCCCC(CO)CCC (stereo not given) | inactive |
| O=C(O)[C@@H]1[C@H]2C[C@H]3c4[nH]c5ccccc5c4CCN3C[C@@H]2CC[C@@H]1O | inactive |
| CCN(CC)CCNC(C(=O)OCCC(C)C)c1ccccc1 (stereo not given) | inactive |
| CCC(C)N(C)C(=O)c1cc2ccccc2c(-c2ccccc2Cl)n1 (stereo not given) | inactive |
| FC(F)(F)C(F)(F)C(F)(F)C(F)(F)C(F)(F)C(F)(F)CCI | inactive |
| CCCC(=O)OCC | inactive |
| COc1ccc(C(C)=O)cc1 | inactive |
| CN(c1nccc(=O)[nH]1)C1CCN(c2nc3ccccc3n2Cc2ccc(F)cc2)CC1 | inactive |
| O=CNc1ccccc1 | inactive |
| CCN(CC)C(C)=O | inactive |
| CC(O)C1CCCCC1 (stereo not given) | inactive |
| C=C(C)C(=O)OCCN(C)C | inactive |
| O=C1CCCCCO1 | inactive |
| CCCCCOC(=O)c1ccc(O)cc1 | active |
| CC[C@H](C)[C@@H](C(=O)O)n1sc2ccccc2c1=O | inactive |

====

- test-details: qHTS assay for small molecule agonists of the antioxidant response element (ARE) signaling pathway (AID 743202); on activation: on the % scale 0 is the no-effect control and ±100 the full control effect
- assay-setup: HepG2 ARE-bla reporter, beta-lactamase FRET, 16 h; series mostly up to 73.3 µM
Results filed as inconclusive are left out. The source made the active and inactive calls. Calls follow the shape of the dose curve; as a rule, active = well fitted activation curve with a large enough effect in the signal ratio in the repeat runs (not every such curve was filed as active); inconclusive = weak or mixed curves, or effect the other way; inactive = no such curve, though single readings can be large or run the other way; the % refers to the signal ratio.
Possible outcomes: active, inactive

| compound | cat |
| --- | --- |
| CC(C)(C)c1cc(CO)cc(C(C)(C)C)c1O | active |
| NCc1ccccc1 | inactive |
| C=CCCCCCC | inactive |
| O=C(O)/C=C/c1cnc[nH]1 | inactive |
| CCCCCC/C=C/C=O | inactive |
| O=CNc1ccccc1 | inactive |
| CCOC(=O)CC(C)C | inactive |
| CC(CN)CCCN (configuration not stated) | inactive |
| C=C(C)C(=O)OCCOc1ccccc1 | inactive |
| CC(C)(Oc1ccc(Cl)cc1)C(=O)OCCCOC(=O)C(C)(C)Oc1ccc(Cl)cc1 | inactive |
| Cc1ccc(C(=O)C(C)CN2CCCCC2)cc1 (configuration not stated) | active |
| CCCCCCCCCC(=O)OCC | inactive |
| CC(C)=CCCC(C)CC=O (configuration not stated) | inactive |
| CCCC[C@H]1CN(CC2CCOCC2)C(=O)OC12CCN(C1(C)CCN(C(=O)c3c(C)ncnc3C)CC1)CC2 | inactive |
| CCOC(=O)C1=C(C)NC(C)=C(C(=O)OC)C1c1cccc([N+](=O)[O-])c1 (configuration not stated) | inactive |
| Cc1cccc(OCCOc2cccc(C)c2)c1 | inactive |
| COc1ccc2[nH]c(S(=O)Cc3ncc(C)c(OC)c3C)nc2n1 (configuration not stated) | active |
